# test_summary: protein stability index of a GFP-peptide fusion (yeast GPS) (PSI 1-4); higher = more stable; sorted into four equal gates, so the index is relative within each strain
# run_conditions: pdr5∆
observation_type: protein stability index

| sequence_text | measured_value |
| --- | --- |
| EGYQNDINTIKLQLSFV [SRP72] | 2.73 |
| VINKLDRLILDLKLPPM [SNU114] | 1.31 |
| SVKPHVVEPEHMADAKI [SIR4] | 2.92 |
| VDNVWADVYAKALEGKD [RPP1B] | 3.1 |
| NKQYELFMKSLIENCKK [SWI1] | 2.85 |
| LALPVFHIGYFKATIQI [RPO31] | 1.49 |
| NVQTQYREAPVIYRGPE [RET1] | 2.97 |
| LGIKKEKRIQYAKDILQ [RPB2] | 2.12 |

###

# test_summary: protein stability index of a GFP-peptide fusion (yeast GPS) (PSI 1-4); higher = more stable; sorted into four equal gates, so the index is relative within each strain
# run_conditions: ubr1∆
Listed here are sequences together with their documented protein stability index.

| sequence_text | protein stability index |
| --- | --- |
| NKRWKVDIGGKQHAVLM [RRP4] | 3.2 |
| KLKNENTDLKDIIQGNP [PCI8] | 3.25 |
| SPVSSVHTANFSERGSN [MED2] | 2.86 |
| TGEWFSSYEEFLERFDF [ITC1] | 2 |
| NPMVPSSVNEDTFLPPP [PRP8] | 3.1 |
| SNQRFKDLQWLEFARIT [SIN4] | 3.15 |
| MMEEIINVVIKASRKSV [ECM29] | 1.53 |
| LSERKAEKAEIRKRRAS [RPS6A] | 3.36 |
| VDENGDPIWQHQSLGPD [RET1] | 3.27 |
| DWGQALRLLLLLIEFPY [YJR042W/NUP85] | 1.21 |
| KIDGNPDELIKAGVEAI [PRE5] | 3.36 |
| KDAVDYSKIPNILSNKP [RRP6] | 1.58 |
| EEYARRLAEFKRRKLDL [SMC4] | 3.31 |
| MGVPIYGIVAMAATATD [FAS2] | 1.47 |
| ESISQTPISNEQTEGEP [SRP68] | 3.19 |

###

Listed here are sequences together with their documented protein stability index.
# test_summary: protein stability index of a GFP-peptide fusion (yeast GPS) (PSI 1-4); higher = more stable; sorted into four equal gates, so the index is relative within each strain
# run_conditions: san1∆
observation_type: protein stability index

| sequence_text | measured_value |
| --- | --- |
| DNNSSLNVSNTKENGDF [PRP8] | 2.9 |
| IELIDYDKLPAGQNATV [RET1] | 1.67 |
| SHNFQNAIFQMESEEVP [PCI8] | 2.7 |
| DVVAHRQLAGAIGYEPL [DIS3] | 1.88 |
| CRLFFTELASKDNAIYN [YCS4] | 1.1 |
| KFRSSILRKSFDFLMNM [RPN2] | 2.04 |
| LSSELDSNKTLLHNHLK [SMC2] | 3.17 |
| PIYTGDGWVKLTYKSEL [YMR153W/NUP53] | 2.45 |
| LLTSAGCKNGSFTLLNQ [NUT1] | 2.3 |
| DPRHIQLLGDVMTYKGE [RPO31] | 2.79 |
| GKYTLGYKSTVKSLRQG [RPL30] | 2.54 |
| PGYVDIVKTSSGNEMPP [RPS19A] | 2.84 |
| NTMSAWVNMLLISSSGP [FAS2] | 1.37 |
| DLENKFNRLKKQAHEKL [YIL149C/MLP2] | 2.3 |
| NVDNQTSDLVKSLGLKL [RPS17A] | 3.35 |
| YIRKLISSGLLYLQDSN [SRB8] | 1.18 |
| EVRQETQPKAEATQDDD [NUT1] | 3.4 |
| EFFVQVLTHESLHRQQQ [DLS1] | 2.81 |
| DLEHKEDCVEEFFHLQH [QCR6] | 2.69 |
| EAAAAEEGEEEEVKEEV [RPS0B] | 3.19 |
| SLTISLYASDYASYFPY [RPN7] | 1.6 |
| NSLAVRGKDCTVVISQK [SCL1] | 2.94 |
| NNGLPMKNKAETTTEED [ITC1] | 2.94 |
| LISSSGPIKTPVGACAT [FAS2] | 1.31 |
| VLCNSNISKSRAKPVTN [RRP6] | 2.09 |
| TFIYGYCDKNFRENMSK [PRE3] | 2.21 |
| YLRVSFKNTRETAQAIN [RPL17A] | 1.5 |
| PGEYITTIKAIFDGNYG [YMR129W/POM152] | 2.77 |
| EQDPYSNASQMGNTGSG [RPB3] | 2.21 |
| NLERLRSDLQSKIQEIE [YIL149C/MLP2] | 3.49 |

###

# test_summary: protein stability index of a GFP-peptide fusion (yeast GPS) (PSI 1-4); higher = more stable; sorted into four equal gates, so the index is relative within each strain
# run_conditions: ubr1∆
Listed here are sequences together with their documented protein stability index.

| sequence_text | protein stability index |
| --- | --- |
| RQGRSNRRGMLALSGTS [SNF5] | 2.74 |
| RQLAGAIGYEPLSLTHR [DIS3] | 2.93 |
| IDEKSQFVETIVSKSIE [RPN2] | 1.98 |
| TVKENESDSKLQCHISG [UBP6] | 3.15 |
| VENSVLIEKVDDTAANN [YIL149C/MLP2] | 2.79 |
| LESKMSEVGDAFIFGLQ [SMC3] | 3.34 |
| DAGKLVYVTGGRNLGRI [RPS4A] | 1.89 |
| SNMQKSLLPYYHLTKAV [RPN3] | 1.92 |
| HVPEKKSTDLTPKGNES [MTR3] | 3.11 |
| SHTGLIRKYGLNICRQC [RPS29A] | 1.89 |
| LDPSLRAPIYHSKFRSS [YML031W/NDC1] | 2.35 |
| ETYVASYVVPRLYLKDQ [ECM29] | 2.32 |
| SILSFVDKELLEPGCSV [RPT2] | 3.01 |
| FHIGYFKATIQILQGIC [RPO31] | 1.54 |
| VREFQRRLAFLGIKVAE [BRR2] | 1.17 |
| GYGSNKKTKFLSPSGHK [RPL32] | 1.63 |
| IDQAHVSEITKLKFFPS [RPN14] | 3.28 |
| GHTLINNYKDLLAVAIA [RPP0] | 1.18 |
| LKNKKEIYRISFQLSKI [RPS9A] | 3.2 |
| KTTITRVEPETFEIPQA [SWI3] | 2.38 |
| NIRNNIESQNLDLIPHS [SRB4] | 2.7 |
| TTVITVFLEFSLNFIPI [YML103C/NUP188] | 1.58 |
| ATPGRLIDSLENHLLVM [PRP28] | 2.1 |
| NVFGQDNEDSDNLFGET [SWI3] | 3.5 |
| VFYAELNEFFTRELAEE [RPS3] | 3.28 |
| KSESDELQMRSFLKEGD [RRP4] | 3.16 |
| SVEWMKVSPSMCGVIVK [SIN4] | 1.54 |
| VGLVSPSFMLKHHQLFY [RPN1] | 1.4 |
| MASRVDETTVPSYYYYV [ROX3] | 1.94 |
| AGNKVGQSEASLLNLLN [RPP0] | 2.95 |

###

# test_summary: protein stability index of a GFP-peptide fusion (yeast GPS) (PSI 1-4); higher = more stable; sorted into four equal gates, so the index is relative within each strain
# run_conditions: doa10∆
Listed here are sequences together with their documented protein stability index.

| sequence_text | protein stability index |
| --- | --- |
| RGAWGKPHGLAARVDIG [RPL10] | 2.59 |
| VDENGDPIWQHQSLGPD [RET1] | 3.25 |
| FLLSAMTMASKSLEVVN [NSL1] | 1.4 |
| GSSALADNKEDVKKPFS [YLR335W/NUP2] | 3.48 |
| QIISNAHNKPSLFSKIK [YAR002W/NUP60] | 2.94 |
| RLQQQQAQAQAQANNNN [GAL11] | 2.03 |
| ANFKTSKKYQLADWRIR [RRP6] | 2.97 |
| SKTGIIAYSDSQSSNAN [SIN4] | 2.63 |
| VTRTQQWSMVAQRLQIS [SWI1] | 2.05 |
| LDNLKLKELRIDNSPQA [GRR1] | 2.65 |
| IERLTKRQFNNSYWLII [ITC1] | 3.01 |
| DVAYLLKSESATSQYLK [YGL172W/NUP49] | 2.25 |
| KKEEEEQLSEEDAKLKT [RPN1] | 3.19 |
| EAAAAEEGEEEEVKEEV [RPS0B] | 3.24 |
| INMADRSLGLQQVVCIF [POP6] | 1.39 |
| VSGNNASDEPSRKKNRR [SSN3] | 2.67 |
| DIVSIDIEEPQLDLLDD [MTW1] | 2.66 |
| GKGRQSAKAELEKLVDH [PRE10] | 1.82 |
| IAIAGTGQIEGLLDYMR [COR1] | 3.37 |
| EIVNMVPSHVPQVLINR [SIR2] | 3.13 |
| YGDGNGKGDNDNGLGPL [SWI3] | 3.46 |
| EAMLRENIEVILSNGRM [SNF12] | 2.79 |
| VEFINKMENFEFLPLSL [SRB8] | 3.08 |
| RIHVNPSYYGVRDTSPH [BRR2] | 1.96 |
| KVTEKVLTQLTALALKY [CSI1] | 2.24 |
| PKVPEDIYKSHLDNSKS [RPN1] | 3.1 |
| LICPQYGTENKDGEDII [CSL4] | 3.23 |
| QERKDFLKKVMDTIQDK [ECM29] | 3.12 |
| MRDKSFGRTLASVTKEI [RPL12A] | 3.25 |
| VMESGAKGCEVVVSGKL [RPS3] | 3.04 |

These data points were gathered from the supplement of paper PMC9732359.
